# test: Drug degradation in human plasma up to 120 mins
# Format: ADME, cell-free
# assay context: read-out: Drug degradation
endpoint name: metabolised at 2 h

Ask | Query: metabolised at 2 h; subject: COCC1=C(C(=O)OCC[18F])C(c2ccc(F)c(F)c2)N(C(=O)NCCCN2CCC(c3cccc(NC(C)=O)c3)CC2)C(=O)N1 (stereo unspecified)
Reply | < 5%

====

# System: carboxyl esterase
# test: Drug degradation after 6 hrs in presence of carboxyl esterase
# Format: physicochemical
# assay context: read-out: Drug degradation
endpoint name: metabolised at 6 h

Ask | What value of metabolised at 6 h on carboxyl esterase does COCC1=C(C(=O)OCC[18F])C(c2ccc(F)c(F)c2)N(C(=O)NCCCN2CCC(c3cccc(NC(C)=O)c3)CC2)C(=O)N1 (stereo unspecified) have?
Reply | 20%
